These measurements were taken from patent US20150015931A1.

- assay-explanation: Solubility testing: saturation concentration of dye in non-polar solvent
- condition-description: Decane/dye 12 as solvent
value-kind: Dye saturation concentration % in (Decane/dye 12 as solvent) (%)

These solved cases illustrate the format of a correct answer.
Data request: What value of measured Dye saturation concentration % in (Decane/dye 12 as solvent) is listed for CCCCCCCCCCCCCCCCCCN(CCCCCCCCCCCCCCCCCC)c1cc(NC(C)=O)c(/N=N/c2c(C#N)cc([N+](=O)[O-])cc2C#N)cc1OC ?
Data returned: 0.18

Data request: Cc1ccc(C)c(N=Nc2cc(C)c(N=Nc3c(O)ccc4ccccc34)cc2C)c1 [Oil Red O, reference compound] , same question.
Data returned: 1.49

Data request: Also CCCCNc1ccc(NCCCC)c2c1C(=O)c1ccccc1C2=O [Solvent Blue 35, reference compound] ?
Data returned: 0.62

[I] CCCCCNc1ccc(NCCCCC)c2c1C(=O)c1ccccc1C2=O [Oil Blue N, reference compound]
[II] CCCCCCCCN(CCCCCCCC)c1ccc(/N=N/c2snc(C)c2C#N)c(NC(C)=O)c1
Data request: Just curious, which one has the larger Dye saturation concentration % in (Decane/dye 12 as solvent) reading, I or II ? Identify your selection by its label.
Data returned: I
(I: 1.14%, II: 0.41%)
